The origin of these recorded values is ChEMBL document CHEMBL3045610.

Provide the recorded MIC for the entries that follow.
test system: Staphylococcus aureus; assay: Antibacterial activity against Staphylococcus aureus by broth dilution method; assay type: functional
Reply with the number and its unit after it.

Solved cases (6 shown):
Inquiry: Recorded MIC for Cc1cc(Cl)nc2ccc3c(=O)c(C(=O)NN4C(=O)C(Cl)C4c4ccc(Cl)cc4)c[nH]c3c12 (stereo not drawn) , please?
Reply text: 500 mg/L

Inquiry: Would you mind doing Cc1cc(Cl)nc2ccc3c(=O)c(C(=O)N/N=C/c4ccccc4O)c[nH]c3c12 as well?
Reply text: 100 mg/L

Inquiry: Would you mind doing COc1cc(/C=N/NC(=O)c2c[nH]c3c(ccc4nc(Cl)cc(C)c43)c2=O)ccc1O as well?
Reply text: 100 mg/L

Inquiry: Would you mind doing Cc1ccc(C2C(Cl)C(=O)N2NC(=O)c2c[nH]c3c(ccc4nc(Cl)cc(C)c43)c2=O)cc1 (stereo not drawn) as well?
Reply text: 250 mg/L

Inquiry: Would you mind doing Cc1cc(Cl)nc2ccc3c(=O)c(C(=O)NN4C(=O)C(Cl)C4c4ccccc4)c[nH]c3c12 (stereo not drawn) as well?
Reply text: 250 mg/L

Inquiry: Would you mind doing Cc1ccc(/C=N/NC(=O)c2c[nH]c3c(ccc4nc(Cl)cc(C)c43)c2=O)cc1 as well?
Reply text: 250 mg/L

I have 4 molecules here; please give me MIC for each one.
1. COc1ccccc1C1C(Cl)C(=O)N1NC(=O)c1c[nH]c2c(ccc3nc(Cl)cc(C)c32)c1=O (stereo not drawn)
2. COc1cc(C2C(Cl)C(=O)N2NC(=O)c2c[nH]c3c(ccc4nc(Cl)cc(C)c43)c2=O)ccc1O (stereo not drawn)
3. COc1ccc(/C=N/NC(=O)c2c[nH]c3c(ccc4nc(Cl)cc(C)c43)c2=O)cc1
4. Cc1cc(Cl)nc2ccc3c(=O)c(C(=O)NN4C(=O)C(Cl)C4c4cccc([N+](=O)[O-])c4O)c[nH]c3c12 (stereo not drawn)

Reply text:
250 mg/L
1000 mg/L
500 mg/L
500 mg/L

----------
tested on: Escherichia coli; experiment: Antibacterial activity against Escherichia coli by broth dilution method; assay type: functional
Decision: MIC beneath 200 µg/mL gives Met; MIC meeting or exceeding 200 µg/mL gives Not met.

Inquiry: State whether 200 µg/mL exceeds MIC recorded for Cc1cc(Cl)nc2ccc3c(=O)c(C(=O)N/N=C/c4ccccc4)c[nH]c3c12 .
Reply text: Not met

Inquiry: Would you mind doing COc1cc(/C=N/NC(=O)c2c[nH]c3c(ccc4nc(Cl)cc(C)c43)c2=O)ccc1O as well?
Reply text: Not met

Inquiry: Would you mind doing CCOC(=O)c1c[nH]c2c(ccc3nc(Cl)cc(C)c32)c1=O as well?
Reply text: Not met

***
Inquiry: State whether 200 µg/mL exceeds MIC recorded for CCn1cc(C(=O)O)c(=O)c2cc(F)c(N3CCNCC3)cc21 .
Reply text: Met

Inquiry: Would you mind doing COc1ccc(C2C(Cl)C(=O)N2NC(=O)c2c[nH]c3c(ccc4nc(Cl)cc(C)c43)c2=O)cc1 (centres undefined) as well?
Reply text: Not met

Inquiry: Would you mind doing CC1(C)S[C@@H]2[C@H](NC(=O)[C@H](N)c3ccccc3)C(=O)N2[C@H]1C(=O)O as well?
Reply text: Met

Inquiry: Would you mind doing Cc1cc(Cl)nc2ccc3c(=O)c(C(=O)N/N=C/c4ccccc4Cl)c[nH]c3c12 as well?
Reply text: Not met

Inquiry: Would you mind doing Cc1cc(Cl)nc2ccc3c(=O)c(C(=O)N/N=C/c4ccccc4O)c[nH]c3c12 as well?
Reply text: Not met
